Measurement target: PR-B (Homo sapiens)
Procedure summary: PR-B antagonisms and agonisms
Format: cell-based
Experimental context: PR-B antagonism; read-out: Antagonism IC50
Property: pIC50
pIC50 is defined as minus the log10 of a concentration measured in mol/L.

So for C[C@]12CCC3C4CCC(=O)C=C4CCC3C1CC[C@]2(F)/C=N/O (stereo partly shown) , the logged pIC50 turned out to be 9.47

----------
Measurement target: PR-B (Homo sapiens)
Sequence (P06401 1-933): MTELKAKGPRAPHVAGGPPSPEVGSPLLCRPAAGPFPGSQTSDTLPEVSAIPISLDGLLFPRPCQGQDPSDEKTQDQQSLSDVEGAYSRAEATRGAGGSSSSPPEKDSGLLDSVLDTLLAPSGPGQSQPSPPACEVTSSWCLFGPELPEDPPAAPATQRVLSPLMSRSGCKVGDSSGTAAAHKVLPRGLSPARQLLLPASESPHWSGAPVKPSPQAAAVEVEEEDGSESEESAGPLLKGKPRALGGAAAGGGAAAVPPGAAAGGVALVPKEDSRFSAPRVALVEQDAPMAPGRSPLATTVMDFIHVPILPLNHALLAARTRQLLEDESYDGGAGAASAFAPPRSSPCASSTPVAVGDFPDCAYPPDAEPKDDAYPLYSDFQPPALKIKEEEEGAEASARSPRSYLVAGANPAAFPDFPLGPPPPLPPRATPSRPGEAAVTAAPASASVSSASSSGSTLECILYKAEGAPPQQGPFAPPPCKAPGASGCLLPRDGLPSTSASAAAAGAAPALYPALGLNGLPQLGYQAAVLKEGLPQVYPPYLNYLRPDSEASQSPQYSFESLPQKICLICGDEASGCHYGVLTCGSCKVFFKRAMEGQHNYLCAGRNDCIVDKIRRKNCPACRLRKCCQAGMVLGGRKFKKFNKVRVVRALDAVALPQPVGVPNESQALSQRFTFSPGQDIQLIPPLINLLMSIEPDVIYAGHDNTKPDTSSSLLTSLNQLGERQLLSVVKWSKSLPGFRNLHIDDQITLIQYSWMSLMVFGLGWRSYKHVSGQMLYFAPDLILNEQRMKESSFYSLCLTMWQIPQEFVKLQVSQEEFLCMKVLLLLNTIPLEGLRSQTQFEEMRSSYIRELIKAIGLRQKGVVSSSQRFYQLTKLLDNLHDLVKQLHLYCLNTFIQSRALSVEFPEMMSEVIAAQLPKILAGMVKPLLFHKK
Procedure summary: PR-B antagonisms and agonisms
Assay type: cell-based
Experimental context: PR-B agonism; read-out: Agonism IC50
Property: IC50 (nM)
Give the quantity in nM, number only.

The reported PR-B (Homo sapiens) IC50 of C[C@]12CCC3C4CCC(=O)C=C4CCC3C1CC[C@]2(F)/C=N/O (stereo partly shown) is 0.25
